system under test: anti-A044 antibody (Fibronectin PET)
assay comment: peptide competition assay in 6% BSA
Where no end group is shown, it is not given here.
property label: pIC50
Quick note: pIC50 values are minus log10 of concentrations in mol/L.

CHEGGQSYK-NH2 [A044 peptide (Fibronectin), …-NH2] yielded pIC50 of 8.10
